biological target: Aβ1-40 amyloid (amyloid form of the Aβ1-40 peptide); test: ELISA on immobilized Aβ1-40 amyloid, streptavidin-alkaline phosphatase detection
No end group written: not given here. *: point of attachment. Biotin = O=C1N[C@H]2[C@H](CS[C@H]2CCCCC(=O)*)N1
readout_kind: pKd
The quantity pKd is defined as the negative base-10 logarithm of the molar concentration.

Any idea what pKd was measured for Biotin-AECDWGKGGRWRLWPGASGKTEACGP (also: flanking cysteines can form a disulfide bond) [Biotin-…] ?
6.49
